# assayed-target: Wee1 (h) (Homo sapiens)
# Sequence (P30291 whole entry): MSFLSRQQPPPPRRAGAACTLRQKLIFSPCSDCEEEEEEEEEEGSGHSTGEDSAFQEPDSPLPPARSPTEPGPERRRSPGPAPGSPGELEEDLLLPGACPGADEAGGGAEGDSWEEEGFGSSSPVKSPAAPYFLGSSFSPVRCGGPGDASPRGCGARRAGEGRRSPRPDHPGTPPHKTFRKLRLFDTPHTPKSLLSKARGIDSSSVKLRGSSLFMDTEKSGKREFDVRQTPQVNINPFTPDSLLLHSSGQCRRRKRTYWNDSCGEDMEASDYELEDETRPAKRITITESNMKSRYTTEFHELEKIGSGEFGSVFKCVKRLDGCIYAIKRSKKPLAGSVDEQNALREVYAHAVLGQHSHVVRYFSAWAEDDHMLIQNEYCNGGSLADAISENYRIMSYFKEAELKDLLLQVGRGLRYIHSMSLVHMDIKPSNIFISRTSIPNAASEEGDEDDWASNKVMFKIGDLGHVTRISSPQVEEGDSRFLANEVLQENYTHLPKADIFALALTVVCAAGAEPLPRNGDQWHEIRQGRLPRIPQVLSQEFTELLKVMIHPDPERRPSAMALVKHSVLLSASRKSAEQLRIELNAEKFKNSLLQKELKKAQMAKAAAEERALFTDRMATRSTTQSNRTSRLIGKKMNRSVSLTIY
# method-summary: Wee1 kinase (h) detection method, [γ-33P]-ATP filter assay
# Assay type: biochemical
# details: C 1 μm compound
observable: Inh. (%) of Wee1 kinase enzyme activity

Worked cases, Inh. (%) of Wee1 kinase enzyme activity given:
# record-smiles, result
data = [
    ("CN1CCN(c2c(Cl)cc(Nc3ncc4c(n3)N3CCN=C3N(c3c(Cl)cccc3Cl)C4=O)cc2C(F)(F)F)CC1", "88%"),
    ("CN1CCN(c2c(Cl)cc(Nc3ncc4c(n3)N3CCN=C3N(c3c(Cl)cccc3Br)C4=O)cc2Cl)CC1", "97%"),
    ("Cc1cccc(C)c1N1C(=O)c2cnc(Nc3ccc4c(c3)CN(C)CC43CC3)nc2N2CCN=C21", "87%"),
    ("Cc1cc(Nc2ncc3c(n2)N2CCN=C2N(c2c(Cl)cccc2Br)C3=O)ccc1N1CCN(C)CC1", "99%"),
    ("CN(C)C1CCN(c2ccc(Nc3ncc4c(n3)N3CCN=C3N(c3c(F)cccc3Cl)C4=O)cc2Cl)CC1", "98%"),
]

Read the next record carefully.
For Cc1cc(Nc2ncc3c(n2)N2CCN=C2N(c2c(C)cccc2F)C3=O)ccc1N1CCN(C)CC1 the molecule record lists Inh. (%) of Wee1 kinase enzyme activity as 83%

---

Quick reference: Inh. (%) of Wee1 kinase enzyme activity of the listed items.
# assayed-target: UniProtKB P30291
# method-summary: Wee1 kinase (h) detection method, [γ-33P]-ATP filter assay
# Assay type: biochemical
# details: C 0.01 μm compound
Supply the numeric figure in %, leaving out any unit text.

Answered cases to consult:
# molecule, assayed-target, measurement-unit, numeric-value
measured = [
    ("Cc1cc(Nc2ncc3c(n2)N2CCN=C2N(c2c(C)cccc2Cl)C3=O)cc(C)c1N1CCN(C)CC1 [Example 174]", "UniProtKB P30291", "%", 30),
    ("Cc1cc(Nc2ncc3c(n2)N2CCN=C2N(c2c(F)cccc2Cl)C3=O)cc(F)c1N1CCC(N(C)C)CC1 [Example 120]", "UniProtKB P30291", "%", 16),
    ("Cc1cc(Nc2ncc3c(n2)N2CCN=C2N(c2c(F)cccc2Cl)C3=O)ccc1N1CCN(C)CC1 [Example 50]", "UniProtKB P30291", "%", 62),
    ("COc1cc(Nc2ncc3c(n2)N2CCN=C2N(c2c(F)cccc2Cl)C3=O)cc(F)c1N1CCN(C)CC1 [Example 124]", "UniProtKB P30291", "%", 18),
    ("CN(C)C1CCN(c2ccc(Nc3ncc4c(n3)N3CCN=C3N(c3c(Cl)cccc3Cl)C4=O)cc2Cl)CC1 [Example 139]", "UniProtKB P30291", "%", 31),
    ("Cc1cccc(C)c1N1C(=O)c2cnc(Nc3ccc(N4C[C@@H](C)N(C)[C@@H](C)C4)cc3)nc2N2CCN=C21 [Example 84]", "UniProtKB P30291", "%", 18),
    ("CN(C)C1CCN(c2ccc(Nc3ncc4c(n3)N3CCN=C3N(c3c(Cl)cccc3Cl)C4=O)cc2Br)CC1 [Example 140]", "UniProtKB P30291", "%", 32),
    ("Cc1cc(Nc2ncc3c(n2)N2CCN=C2N(c2c(Cl)cccc2Br)C3=O)cc(Cl)c1N1CCN(C)CC1 [Example 166]", "UniProtKB P30291", "%", 28),
    ("CN1CCN(c2ccc(Nc3ncc4c(n3)N3CCN=C3N(c3c(F)cccc3Cl)C4=O)cn2)CC1 [Example 57]", "UniProtKB P30291", "%", 36),
    ("CC(C)N1[C@H](C)CN(c2ccc(Nc3ncc4c(n3)N3CCN=C3N(c3c(Cl)cccc3Cl)C4=O)cc2)C[C@@H]1C [Example 65]", "UniProtKB P30291", "%", 18),
]

Just so you know, measured Inh. (%) of Wee1 kinase enzyme activity for CN(C)C1CCN(c2ccc(Nc3ncc4c(n3)N3CCN=C3N(c3c(F)cccc3Cl)C4=O)cc2F)CC1 [Example 116] came out at 19

Lab note: measured Inh. (%) of Wee1 kinase enzyme activity of Cc1cc(Nc2ncc3c(n2)N2CCN=C2N(c2c(F)cccc2Cl)C3=O)ccc1N1CCC(N(C)C)CC1 [Example 119] was 24

Consider CN1CCN(c2ccc(Nc3ncc4c(n3)N3CCN=C3N(c3c(Cl)cccc3Cl)C4=O)cc2)CC1 [Example 4] . Its measured Inh. (%) of Wee1 kinase enzyme activity is 55

Inh. (%) of Wee1 kinase enzyme activity measured on COc1cc(Nc2ncc3c(n2)N2CCN=C2N(c2c(Cl)cccc2Cl)C3=O)cc(F)c1N1CCN(C)CC1 [Example 149] = 22

---

# Test system: NCI-H1299 cells
# method-summary: MTT based cell viability assay on NCI-H1299 cells
# details: Homo sapiens, NCI-H1299, NCI-H1299 cells, read-out: IC50, growth inhibition of NCI-H1299 cells
Below: a set of entries, each annotated with reported pIC50.
Quick note: pIC50 values are minus log10 of concentrations in mol/L.

Examples with answers:
# record-smiles, pIC50
records = [
    ("Cc1cc(Nc2ncc3c(n2)N2CCN=C2N(c2c(F)cccc2Cl)C3=O)cc(F)c1N1CCC(N(C)C)CC1", 7.23),
    ("COc1cc(Nc2ncc3c(n2)N2CCN=C2N(c2c(F)cccc2Cl)C3=O)cc(F)c1N1CCN(C)CC1", 6.86),
    ("Cc1cccc(Cl)c1N1C(=O)c2cnc(Nc3cc(Cl)c(N4CCN(C)CC4)c(Cl)c3)nc2N2CCN=C21", 6.44),
    ("CN1CCN(c2ccc(Nc3ncc4c(n3)N3CCN=C3N(c3c(F)cccc3Cl)C4=O)cc2F)CC1", 6.22),
]

Value (pIC50, NCI-H1299 cells) for record CN1CCN(c2ccc(Nc3ncc4c(n3)N3CCN=C3N(c3c(F)cccc3Cl)C4=O)cc2C(F)(F)F)CC1 = 5.95
